This section presents compounds with their documented activity coefficient values.
assay: activity coefficient (dimensionless); of the first substance listed, at infinite dilution; xn = mol fraction of the nth substance listed; settings: 318.15 K; 100 kPa; Liquid; inert gas stripping; x1 = 0
// response body must contain only the number

Use the examples below as a reference point.
CCC(=O)C(C)C [2-methyl-3-pentanone] + O | 467
CC(=O)C(C)C [3-methyl-2-butanone] + O | 112
CCCCC(C)=O [2-hexanone] + O | 471
CCCC(C)=O [pentan-2-one] + O | 121

Exercise: Write down activity coefficient measured for item CC(=O)CC(C)C [4-methylpentan-2-one] + O
Solution: 405

Exercise: Write down activity coefficient measured for item CCC(C)C(C)=O (configuration not stated) [3-methyl-2-pentanone] + O
Solution: 358

Exercise: Write down activity coefficient measured for item CC(=O)C(C)(C)C [3,3-dimethyl-2-butanone] + O
Solution: 370
